Reference for the values: ChEMBL document CHEMBL1137471

TARGET_OF_ASSAY: Human immunodeficiency virus type 1 integrase (Human immunodeficiency virus 1, UniProt Q7ZJM1)
Sequence (Q7ZJM1 whole entry): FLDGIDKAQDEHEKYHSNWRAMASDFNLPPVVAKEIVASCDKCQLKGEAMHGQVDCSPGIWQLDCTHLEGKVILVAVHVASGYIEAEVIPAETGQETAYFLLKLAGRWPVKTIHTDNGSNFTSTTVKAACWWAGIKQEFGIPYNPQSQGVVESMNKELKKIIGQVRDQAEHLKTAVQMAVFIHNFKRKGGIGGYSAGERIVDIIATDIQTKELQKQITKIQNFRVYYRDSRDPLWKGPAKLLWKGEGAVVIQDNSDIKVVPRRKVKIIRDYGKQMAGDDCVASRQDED
TEST_METHOD_NOTES: Inhibition of HIV1 recombinant integrase strand transfer activity
EXPERIMENTAL_READOUT: pIC50
On this scale, pIC50 is minus log10 of a concentration expressed in M (mol/L).

Looking for the measured pIC50 of O=C1c2c(O)c(O)cc(=O)n2CCCN1Cc1ccc(F)cc1 , can you help?
5.98

Looking for the measured pIC50 of O=C1c2c(O)c(O)cc(=O)n2CCN1Cc1ccccc1Cl , can you help?
6.43

Looking for the measured pIC50 of O=C1c2c(O)c(O)cc(=O)n2CCN1Cc1ccc(F)c(Cl)c1 , can you help?
7.40

Looking for the measured pIC50 of O=C1c2c(O)c(O)c(I)c(=O)n2CCN1Cc1ccc(F)cc1 , can you help?
7.70

Looking for the measured pIC50 of O=C1c2c(O)c(O)cc(=O)n2CCN1Cc1cccc(Cl)c1 , can you help?
7.40

Looking for the measured pIC50 of O=C1c2c(O)c(O)cc(=O)n2CCN1Cc1ccccc1 , can you help?
6.64

Looking for the measured pIC50 of O=c1c2c(O)c(O)cc(=O)n2ccn1Cc1ccc(F)cc1 , can you help?
7.40

Looking for the measured pIC50 of N#Cc1c(O)c(O)c2n(c1=O)CCN(Cc1ccc(F)cc1)C2=O , can you help?
7.70

Looking for the measured pIC50 of O=C1c2c(O)c(O)cc(=O)n2CCN1Cc1ccc(Cl)cc1 , can you help?
6.42

Looking for the measured pIC50 of O=C1c2c(O)c(O)cc(=O)n2CCN1Cc1ccc(F)cc1 , can you help?
7.00

Looking for the measured pIC50 of O=C1c2c(O)c(O)c(Br)c(=O)n2CCN1Cc1ccc(F)cc1 , can you help?
7.52
